Origin of values: the supplement of paper PMC8671470

- Test system: myeloid leukemia patient primary cells Pat.3
- protocol.description: cell viability (% survival relative to DMSO control); higher = less cytotoxic
- condition.notes: 100 nM; 72 h
Rule: measured cell viability below 60% gets T; anything equal to or greater than 60% gets F.

* O=C(CCl)N(CCCNC(=O)C(F)(F)F)c1ccc([N+](=O)[O-])cc1 | T
* Clc1cc(Cl)c(OCC#CI)cc1Cl | F
* O=c1[nH]c(=O)n([C@H]2C[C@H](O)[C@@H](CO)O2)cc1I | F
* CC(C)c1onc(-c2c(Cl)cccc2Cl)c1COc1ccc(/C=C/c2cccc(C(=O)O)c2)c(Cl)c1 | F
* CCn1c(=O)/c(=C2\Sc3ccccc3N2C)s/c1=C\c1cccc[n+]1CC.[Cl-] | F
* NS(=O)(=O)c1ccc(S(=O)(=O)Nc2cccc3c(Cl)c[nH]c23)cc1 | F
